Measured Percent Blocking of Ang-2FD Binding to Tie-2 by item
Molecular target: T1, Mouse Ang-2FD-hFc (mouse (Mus musculus))
T1 construct: also called dimeric mouse Ang-2FD
T1 sequence (chain, as listed by the source limits assumed): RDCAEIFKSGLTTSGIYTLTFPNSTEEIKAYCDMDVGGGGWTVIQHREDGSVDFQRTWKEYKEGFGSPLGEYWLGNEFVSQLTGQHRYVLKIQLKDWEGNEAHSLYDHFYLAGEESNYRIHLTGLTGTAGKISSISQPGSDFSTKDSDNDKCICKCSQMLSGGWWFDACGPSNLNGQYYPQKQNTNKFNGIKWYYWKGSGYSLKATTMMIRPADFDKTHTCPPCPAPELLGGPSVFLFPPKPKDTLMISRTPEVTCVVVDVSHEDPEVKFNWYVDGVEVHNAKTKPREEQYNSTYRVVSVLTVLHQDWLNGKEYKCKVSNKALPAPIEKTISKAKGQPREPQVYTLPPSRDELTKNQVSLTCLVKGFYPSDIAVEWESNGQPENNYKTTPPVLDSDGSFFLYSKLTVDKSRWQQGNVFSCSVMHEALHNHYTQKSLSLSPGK
Assay: blocking ELISA, 16.67 nM antibody, Ang-2FD-hFc to coated hTie-2-mFc
Unit % implied. Number only.

Answered examples (4):
[
  {
    "BINDER": "H1H704P (antibody, V domains shown, Human IgG1) VH: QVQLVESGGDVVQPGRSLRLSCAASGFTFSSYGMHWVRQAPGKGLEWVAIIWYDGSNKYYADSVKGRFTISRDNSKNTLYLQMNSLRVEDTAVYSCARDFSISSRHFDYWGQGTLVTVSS VL: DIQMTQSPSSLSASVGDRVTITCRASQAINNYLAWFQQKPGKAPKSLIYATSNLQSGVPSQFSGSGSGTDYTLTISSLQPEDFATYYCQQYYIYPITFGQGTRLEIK",
    "UNIT_SYMBOL": "%",
    "NUMERIC_READOUT": 41.8
  },
  {
    "BINDER": "H1H706P (antibody, human IgG1, V domains shown, Human IgG1) VH: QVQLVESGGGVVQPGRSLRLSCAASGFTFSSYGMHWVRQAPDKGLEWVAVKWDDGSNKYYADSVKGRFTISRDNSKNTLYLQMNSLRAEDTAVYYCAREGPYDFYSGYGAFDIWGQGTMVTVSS VL: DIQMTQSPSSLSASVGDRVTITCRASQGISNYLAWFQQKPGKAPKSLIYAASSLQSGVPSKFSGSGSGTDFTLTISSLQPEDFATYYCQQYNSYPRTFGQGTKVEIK",
    "UNIT_SYMBOL": "%",
    "NUMERIC_READOUT": 95.9
  },
  {
    "BINDER": "H1H695P (antibody, human IgG1, V domains shown, Human IgG1) VH: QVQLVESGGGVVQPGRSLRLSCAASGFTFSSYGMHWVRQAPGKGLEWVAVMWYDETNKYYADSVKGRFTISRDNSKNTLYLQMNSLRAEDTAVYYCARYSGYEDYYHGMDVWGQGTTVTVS VL: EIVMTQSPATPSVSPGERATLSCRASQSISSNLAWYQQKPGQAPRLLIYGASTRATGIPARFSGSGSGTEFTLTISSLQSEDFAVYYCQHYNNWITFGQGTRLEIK",
    "UNIT_SYMBOL": "%",
    "NUMERIC_READOUT": 97.6
  },
  {
    "BINDER": "H1H685P (antibody, human IgG1, V domains shown, Fully human antibody, human IgG1) VH: EVQLVESGGGLVQPGGSLRLSCAASGFTFSSYDIHWVRQATGKGLEWVSAIGPAGDTYYPGSVKGRFTISRENAKNSLYLQMNSLRAGDTAVYYCARGLITFGGLIAPFDYWGQGTLVTVSS VL: EIVLTQSPGTLSLSPGERATLSCRASQSVSSTYLAWYQQKPGQAPRLLIYGASSRATGIPDRFSGSGSGTDFTLTISRLEPEDFAVYYCQHYDNSQTFGQGTKVEIK",
    "UNIT_SYMBOL": "%",
    "NUMERIC_READOUT": 97.1
  }
]

Can you share its Percent Blocking of Ang-2FD Binding to Tie-2? I mean this binder: H1H693P (antibody, human IgG1, V domains shown, Human IgG1) VH: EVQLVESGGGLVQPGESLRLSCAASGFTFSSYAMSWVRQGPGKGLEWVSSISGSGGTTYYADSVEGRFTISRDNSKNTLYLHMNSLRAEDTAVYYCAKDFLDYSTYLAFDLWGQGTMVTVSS VL: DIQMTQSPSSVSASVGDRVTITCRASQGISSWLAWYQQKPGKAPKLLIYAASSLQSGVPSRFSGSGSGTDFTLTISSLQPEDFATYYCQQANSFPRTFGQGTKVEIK 63.6

Query (binder): H1H691P (antibody, human IgG1, V domains shown, Human IgG1) VH: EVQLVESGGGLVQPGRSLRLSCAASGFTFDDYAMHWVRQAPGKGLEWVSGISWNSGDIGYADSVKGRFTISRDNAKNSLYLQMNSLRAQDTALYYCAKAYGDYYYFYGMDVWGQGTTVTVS VL: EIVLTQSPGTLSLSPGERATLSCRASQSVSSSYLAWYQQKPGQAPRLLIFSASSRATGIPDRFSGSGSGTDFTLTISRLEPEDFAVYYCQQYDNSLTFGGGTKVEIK ; field requested: Percent Blocking of Ang-2FD Binding to Tie-2 96.7
